tested on: LXRa homodimer (NR concentration 270 nM); test: PBM binding z-score (relative to random genomic background probes); higher = stronger binding; sequences stand for … in GC…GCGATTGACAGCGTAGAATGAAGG
PARAMETER: PBM binding z-score
Response field accepts a number only; no unit should be typed.

Use these answered entries as a reference point.
1. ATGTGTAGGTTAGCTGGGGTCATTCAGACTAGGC : 2.89
2. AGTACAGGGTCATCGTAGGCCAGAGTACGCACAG : 0.868
3. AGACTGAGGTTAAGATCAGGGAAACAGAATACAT : -0.133
4. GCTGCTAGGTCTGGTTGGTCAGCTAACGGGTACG : -0.365
5. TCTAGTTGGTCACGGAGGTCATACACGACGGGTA : 3.37

Using the record for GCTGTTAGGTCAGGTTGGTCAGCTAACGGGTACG , report its PBM binding z-score.
-0.132

Using the record for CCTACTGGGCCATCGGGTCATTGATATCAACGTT , report its PBM binding z-score.
-0.0763

Using the record for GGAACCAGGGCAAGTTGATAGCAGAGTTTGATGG , report its PBM binding z-score.
0.225

Using the record for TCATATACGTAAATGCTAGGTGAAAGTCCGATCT , report its PBM binding z-score.
0.327

Using the record for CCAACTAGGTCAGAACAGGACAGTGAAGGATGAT , report its PBM binding z-score.
0.28

Using the record for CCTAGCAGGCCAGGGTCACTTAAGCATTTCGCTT , report its PBM binding z-score.
-0.562

====

Entries and their measured PBM binding z-score follow.
system: RARg homodimer (NR concentration 270 nM); assay: PBM binding z-score (relative to random genomic background probes); higher = stronger binding; sequences stand for … in GC…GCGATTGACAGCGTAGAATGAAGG
Response field accepts a number only; no unit should be typed.

Use these answered entries as a reference point.
1. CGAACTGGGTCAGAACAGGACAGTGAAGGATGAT : 2.27
2. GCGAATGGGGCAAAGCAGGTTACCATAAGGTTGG : 0.52
3. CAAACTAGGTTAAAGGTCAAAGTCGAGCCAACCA : 5.43
4. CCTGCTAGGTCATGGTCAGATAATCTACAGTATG : 4.66
5. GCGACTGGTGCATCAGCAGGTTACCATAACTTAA : -0.351

Find PBM binding z-score (RARg homodimer (NR concentration 270 nM)) for the entry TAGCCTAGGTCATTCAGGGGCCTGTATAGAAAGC
4.02

====

tested on: PXR:RXRa (NR concentration 270 nM, RXRa partner concentration 90 nM); assay: PBM binding z-score (relative to random genomic background probes); higher = stronger binding; sequences stand for … in GC…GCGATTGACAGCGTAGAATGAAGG
Label 0 if PBM binding z-score falls below 0.9; label 1 in every other case.

Dear colleague, could you confirm whether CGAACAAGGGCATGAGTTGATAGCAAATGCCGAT has PBM binding z-score at or above 0.9?
0

Dear colleague, could you confirm whether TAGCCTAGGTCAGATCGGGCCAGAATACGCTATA has PBM binding z-score at or above 0.9?
1

Dear colleague, could you confirm whether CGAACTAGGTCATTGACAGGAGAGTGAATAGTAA has PBM binding z-score at or above 0.9?
1

Dear colleague, could you confirm whether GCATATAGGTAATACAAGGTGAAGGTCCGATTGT has PBM binding z-score at or above 0.9?
0

Dear colleague, could you confirm whether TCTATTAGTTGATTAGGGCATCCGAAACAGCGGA has PBM binding z-score at or above 0.9?
0

Dear colleague, could you confirm whether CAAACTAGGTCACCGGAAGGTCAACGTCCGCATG has PBM binding z-score at or above 0.9?
1

====

Entries and their measured PBM binding z-score follow.
test system: THRa homodimer (NR concentration 90 nM); assay: PBM binding z-score (relative to random genomic background probes); higher = stronger binding; sequences stand for … in GC…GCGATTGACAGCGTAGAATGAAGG
Response field accepts a number only; no unit should be typed.

Using the record for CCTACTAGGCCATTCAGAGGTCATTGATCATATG , report its PBM binding z-score.
2.03

Using the record for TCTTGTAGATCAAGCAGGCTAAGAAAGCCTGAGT , report its PBM binding z-score.
-0.733

Using the record for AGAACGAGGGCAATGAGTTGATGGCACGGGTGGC , report its PBM binding z-score.
-0.205

Using the record for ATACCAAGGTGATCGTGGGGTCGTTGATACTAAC , report its PBM binding z-score.
1.93

Using the record for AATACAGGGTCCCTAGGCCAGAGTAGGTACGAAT , report its PBM binding z-score.
-0.229

Using the record for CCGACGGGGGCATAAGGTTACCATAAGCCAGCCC , report its PBM binding z-score.
1.76

Using the record for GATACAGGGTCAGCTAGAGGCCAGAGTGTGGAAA , report its PBM binding z-score.
0.703

Using the record for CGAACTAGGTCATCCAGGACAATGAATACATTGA , report its PBM binding z-score.
2.22

Using the record for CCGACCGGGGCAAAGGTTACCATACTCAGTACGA , report its PBM binding z-score.
0.202

Using the record for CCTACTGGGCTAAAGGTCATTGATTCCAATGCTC , report its PBM binding z-score.
0.533

Using the record for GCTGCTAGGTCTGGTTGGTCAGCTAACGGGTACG , report its PBM binding z-score.
-0.243

Using the record for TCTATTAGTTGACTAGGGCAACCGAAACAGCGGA , report its PBM binding z-score.
0.147

Using the record for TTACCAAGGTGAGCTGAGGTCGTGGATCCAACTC , report its PBM binding z-score.
2.55

Using the record for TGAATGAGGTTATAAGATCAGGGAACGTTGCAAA , report its PBM binding z-score.
-0.0262

====

tested on: RARg homodimer (NR concentration 270 nM); test: PBM binding z-score (relative to random genomic background probes); higher = stronger binding; sequences stand for … in GC…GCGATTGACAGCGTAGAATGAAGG
PARAMETER: PBM binding z-score
Response field accepts a number only; no unit should be typed.

Use these answered entries as a reference point.
1) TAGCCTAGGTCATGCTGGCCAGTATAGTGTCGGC : 4.32
2) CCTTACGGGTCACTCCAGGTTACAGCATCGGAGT : 4.33
3) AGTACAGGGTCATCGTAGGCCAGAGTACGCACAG : 5.22
4) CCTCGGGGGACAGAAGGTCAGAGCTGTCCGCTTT : 4.23
5) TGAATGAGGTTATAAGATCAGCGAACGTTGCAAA : 1.05
6) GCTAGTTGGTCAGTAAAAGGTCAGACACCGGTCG : 4.27

Using the record for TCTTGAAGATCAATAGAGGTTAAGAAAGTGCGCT , report its PBM binding z-score.
0.205

Using the record for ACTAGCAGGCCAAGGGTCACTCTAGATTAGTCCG , report its PBM binding z-score.
3.34

Using the record for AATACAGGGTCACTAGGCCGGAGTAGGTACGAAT , report its PBM binding z-score.
4.62

Using the record for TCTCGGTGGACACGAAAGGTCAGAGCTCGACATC , report its PBM binding z-score.
4.33

Using the record for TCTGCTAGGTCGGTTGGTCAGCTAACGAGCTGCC , report its PBM binding z-score.
0.0646

====

test system: RARa homodimer (NR concentration 270 nM); experiment: PBM binding z-score (relative to random genomic background probes); higher = stronger binding; sequences stand for … in GC…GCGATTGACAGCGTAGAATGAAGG
PARAMETER: PBM binding z-score
Response field accepts a number only; no unit should be typed.

1. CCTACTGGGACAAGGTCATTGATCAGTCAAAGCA : 0.375
2. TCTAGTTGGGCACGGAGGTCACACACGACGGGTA : 0.793
3. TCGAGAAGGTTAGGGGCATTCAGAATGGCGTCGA : 0.387
4. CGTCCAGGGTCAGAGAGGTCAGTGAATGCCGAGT : 1.6
5. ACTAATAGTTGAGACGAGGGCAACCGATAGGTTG : -0.0731

Using the record for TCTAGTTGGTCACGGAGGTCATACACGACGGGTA , report its PBM binding z-score.
1.78

Using the record for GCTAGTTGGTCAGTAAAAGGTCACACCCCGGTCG , report its PBM binding z-score.
0.952

Using the record for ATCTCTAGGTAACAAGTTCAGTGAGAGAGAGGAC , report its PBM binding z-score.
1.3

Using the record for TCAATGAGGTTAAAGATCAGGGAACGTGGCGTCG , report its PBM binding z-score.
0.278

Using the record for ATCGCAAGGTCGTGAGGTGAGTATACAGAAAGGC , report its PBM binding z-score.
-0.445

Using the record for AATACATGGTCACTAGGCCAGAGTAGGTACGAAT , report its PBM binding z-score.
-0.0326

Using the record for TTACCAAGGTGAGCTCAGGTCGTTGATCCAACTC , report its PBM binding z-score.
-0.956

Numbers sourced from the supplement of paper PMC6555819.
